Exercise: state measured Minimal inhibitory concentration, Bacillus cereus for each of the sequences provided.
Test system: Bacillus cereus ATCC 10876
Experiment: microbe, parasite or virus in culture
Type: cell-based
Conditions: ATCC 10876, 6 h
Where no end group is shown, it is not given here.

Return reported Minimal inhibitory concentration, Bacillus cereus values for all items listed beneath this line.
1. RVRRFWPLVPVAINTVAAGINLYKAIRRK [cc-CATH3]
2. TRSRWRRFIRGAGRFARRYGWRIA [ΔPb-CATH4]
3. ILGPALRIGGRIAGRIAGKLIGDAINRHRERNRQRRG [PD-CATH]
4. GGLRSLGRKILRAWKKYGPIIVPIIRIG [BMAP-28]
5. VRRSKRGIKVPSFVKKVLKDVVSESIS [ΔModoCath6]
6. KRRGSVTTRYQFLMIHLLRPKKLFA [EA-CATH1]

4 (1.28) μg/mL
> 40 (13.1) μg/mL
6 (1.5) μg/mL
7 (2.2) μg/mL
> 40 (13.2) μg/mL
> 40 (13.1) μg/mL

Value source: paper PMC11566078
